test: Clearance in mouse at 2 mg/kg, iv
Type: ADME, organism-based
Parameters: dose 2 mg/kg, route intravenous
condition-set: in vivo
reported-metric: clearance (mL/min/kg)
Number only, in mL/min/kg; omit the unit.

The recorded clearance for entry CC(C)(O)c1ccccc1-c1ccc2[nH]c(/C=C/c3ccc(C(F)(F)F)cc3)nc2c1 equals 10.5

---

test: Volume of distribution at steady state in mouse at 2 mg/kg, iv
Assay type: ADME, organism-based
Design: dose 2 mg/kg, route intravenous
condition-set: in vivo, read-out: Vdss
reported-metric: Vd (L/kg)
Answer format: numeric, L/kg implied, no suffix.

Value of Vd reported for the compound CC(C)(O)c1ccccc1-c1ccc2[nH]c(/C=C/c3ccc(C(F)(F)F)cc3)nc2c1 is 2.5
